molecular target: Acetylcholinesterase (Homo sapiens)
Sequence (P22303 whole entry): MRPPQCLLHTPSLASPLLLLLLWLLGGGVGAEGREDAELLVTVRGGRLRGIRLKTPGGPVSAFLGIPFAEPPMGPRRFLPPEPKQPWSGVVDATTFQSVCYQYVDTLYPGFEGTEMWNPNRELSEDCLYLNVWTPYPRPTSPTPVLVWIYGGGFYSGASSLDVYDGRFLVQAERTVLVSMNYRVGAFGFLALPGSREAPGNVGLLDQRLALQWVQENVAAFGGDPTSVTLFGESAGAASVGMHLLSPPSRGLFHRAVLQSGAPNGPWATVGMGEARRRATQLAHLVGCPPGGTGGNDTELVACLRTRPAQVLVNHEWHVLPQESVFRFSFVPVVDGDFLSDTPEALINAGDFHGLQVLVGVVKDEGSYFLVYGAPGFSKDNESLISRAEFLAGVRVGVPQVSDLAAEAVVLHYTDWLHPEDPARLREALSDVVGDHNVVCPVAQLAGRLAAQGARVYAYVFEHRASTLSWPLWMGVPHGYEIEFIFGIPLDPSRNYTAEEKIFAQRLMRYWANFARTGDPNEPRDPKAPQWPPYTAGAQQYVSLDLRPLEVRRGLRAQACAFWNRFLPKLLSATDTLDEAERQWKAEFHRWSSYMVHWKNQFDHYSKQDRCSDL
Known IC50 of a selection of compounds
Use nM as the unit, but write only the number.

What measured IC50 is associated with `Cc1ccc(C(=O)/C=C/c2ccc(N3CCCCC3)cc2)s1` on Acetylcholinesterase (Homo sapiens)? 130

Others:
Recorded IC50 for Cc1ccc2cc(C3CC(c4sccc4Cl)=NN3)c(Cl)nc2c1 (centres undefined) with Acetylcholinesterase (Homo sapiens), please? 200

Write down the reported IC50 of Cc1ccc2cc(C3CC(c4cc(Cl)sc4Cl)=NN3)c(Cl)nc2c1 (centres undefined) , test system: Acetylcholinesterase (Homo sapiens). 150

What IC50 appears in the records for this compound with Acetylcholinesterase (Homo sapiens)? `O=C(/C=C/c1ccc(N2CCCCC2)cc1)c1sccc1Cl` 160

###

compounds and their reported Ki
target: UniProt P00918
State the answer as a number, implicitly in nM.

Which Ki is reported with UniProt P00918 for this entry: NS(=O)(=O)c1ccc(N2N=C(c3ccc(Br)cc3)CC2c2cccs2)cc1 (configuration not stated) ? 342

Param readout = Ki; param system = UniProt P00918; param query = NS(=O)(=O)c1ccc(N2N=C(c3ccc(F)cc3)CC2c2ccccc2)cc1 (configuration not stated) ; response: value 412

What Ki appears in the records for this compound with UniProt P00918? NS(=O)(=O)c1ccc(N2N=C(c3ccc(O)cc3)CC2c2cccs2)cc1 (configuration not stated) 342

More entries:
Request - read-out Ki | tested on UniProt P00918 | compound COc1ccccc1C1CC(c2ccccc2)=NN1C(=O)c1ccc(S(N)(=O)=O)cc1 (configuration not stated) 31.7

Find the measured Ki: item COc1ccc(C2CC(c3ccc(N)cc3)=NN2C(N)=S)cc1OC (configuration not stated) , target or system UniProt P00918. 11.8

Under UniProt P00918: Ki value of NS(=O)(=O)c1ccc(C(=O)N2N=C(c3ccccc3)CC2c2ccc(Cl)cc2)cc1 (configuration not stated) ? 31.7

###

test: Cytotoxicity against rat PC-12 cells assessed as reduction in cell viability; format: toxicity, cell-based
Listing of entries alongside the reported IC50.

These recorded examples may help you get a feel for the data.
Which IC50 value is on record for Cc1ccc(C2CC(c3ccco3)=NN2c2ccc(S(C)(=O)=O)cc2)cc1 (configuration not stated) ? > 400 µg/mL

I have this compound here, CS(=O)(=O)c1ccc(N2N=C(c3cccs3)CC2c2ccc3c(c2)OCO3)cc1 (configuration not stated) , and I need its recorded IC50. > 400 µg/mL

Any idea what IC50 was measured for COc1ccc(N2N=C(c3cccs3)CC2c2ccc3c(c2)OCO3)cc1 (configuration not stated) ? 12 µg/mL

May I ask what IC50 has been recorded for Cc1ccc(C2CC(c3ccco3)=NN2c2ccc(S(N)(=O)=O)cc2)cc1 (configuration not stated) ? 12 µg/mL

Next:
I'd like to know its IC50. The compound in question is COc1ccc(N2N=C(c3ccco3)CC2c2ccc(C)cc2)cc1 (configuration not stated) 12 µg/mL

What IC50 value was documented for this compound, Fc1ccc(N2N=C(c3cccs3)CC2c2ccc3c(c2)OCO3)cc1 (configuration not stated) ? 12 µg/mL

Looking for the measured IC50 of NS(=O)(=O)c1ccc(N2N=C(c3cccs3)CC2c2ccc3c(c2)OCO3)cc1 (configuration not stated) , can you help? 12 µg/mL

All figures here come from ChEMBL document CHEMBL5260848.
